Data credit: the supplement of paper PMC12533247

# Tested on: primary dermal fibroblasts
# assay_protocol: % change in live cells vs DMSO control; higher = less cytotoxic
# condition_context: 0.082305 µM; donor: 4; time (h post treatment): 48
Listing: % change in live cells of selected compounds
readout_label: % change in live cells (%)

                                   compound  readout_unit  value
0  CC(C)c1cnn2c(NCc3ccccc3-n3cccn3)nc(OC3CCCNC3)nc12 (stereo not drawn)             %  -2.33
1  CC1(C)CC(=O)c2c(C(F)(F)F)nn(-c3ccc(C(N)=O)c(N[C@H]4CC[C@H](O)CC4)c3)c2C1             %   14.3
2  O=C(Nc1ccc([N+](=O)[O-])cc1Cl)c1cc(Cl)ccc1O [Niclosamide]             %      3
3  Cc1nc(N(C)C(=O)Cc2ccc(-c3ccccn3)cc2)sc1S(N)(=O)=O             %  -2.67
4  Cc1cccc(C)c1N(CC(=O)Nc1ccc(-c2ncon2)cc1)C(=O)C1CCS(=O)(=O)CC1             %      5
5  C=CC(=O)N1CC/C(=C\c2ccc(F)c([N+](=O)[O-])c2)C(=O)/C(=C/c2ccc(F)c([N+](=O)[O-])c2)C1             %   2.33
6  Nc1ccn([C@@H]2O[C@H](CO)[C@@H](O)C2(F)F)c(=O)n1             %  -9.33
7  O=C(/C=C\n1cnc(-c2cc(C(F)(F)F)cc(C(F)(F)F)c2)n1)NNc1ccccn1 [Verdinexor]             %  -8.33

---

# System: HSV-1 K26-GFP infected primary human skin cells
# assay_protocol: % change of HSV-1 GFP signal vs untreated infected cells; higher = less antiviral inhibition
# condition_context: 0.001 µM; cell type: primary keratinocytes; donor: 3; time (h post infection): 20
Given measured % change of HSV-1 GFP signal, output 1 if it is greater than or equal to 7% and -1 if not.

compound	measured_target	label_class
Cc1cccc(C)c1N(CC(=O)Nc1ccc(-c2ncon2)cc1)C(=O)C1CCS(=O)(=O)CC1	HSV-1 K26-GFP infected primary human skin cells	1
C=CC(=O)N1CC/C(=C\c2ccc(F)c([N+](=O)[O-])c2)C(=O)/C(=C/c2ccc(F)c([N+](=O)[O-])c2)C1	HSV-1 K26-GFP infected primary human skin cells	-1
CC1(C)CC(=O)c2c(C(F)(F)F)nn(-c3ccc(C(N)=O)c(N[C@H]4CC[C@H](O)CC4)c3)c2C1	HSV-1 K26-GFP infected primary human skin cells	1
O=C(/C=C\n1cnc(-c2cc(C(F)(F)F)cc(C(F)(F)F)c2)n1)NNc1ccccn1 [Verdinexor]	HSV-1 K26-GFP infected primary human skin cells	1
Cc1nc(N(C)C(=O)Cc2ccc(-c3ccccn3)cc2)sc1S(N)(=O)=O	HSV-1 K26-GFP infected primary human skin cells	-1
Nc1ccn([C@@H]2O[C@H](CO)[C@@H](O)C2(F)F)c(=O)n1	HSV-1 K26-GFP infected primary human skin cells	1
CC(=O)O[C@H]1C[C@H](O[C@H]2[C@@H](O)C[C@H](O[C@H]3[C@@H](O)C[C@H](O[C@H]4CC[C@@]5(C)[C@H](CC[C@@H]6[C@@H]5C[C@@H](O)[C@]5(C)[C@@H](C7=CC(=O)OC7)CC[C@]65O)C4)O[C@@H]3C)O[C@@H]2C)O[C@H](C)[C@H]1O[C@@H]1O[C@H](CO)[C@@H](O)[C@H](O)[C@H]1O [Lanatoside C]	HSV-1 K26-GFP infected primary human skin cells	-1
